Form field: self-cleavage (one value per entry).
B1: CPEB3 Ribozyme (parent)
chain: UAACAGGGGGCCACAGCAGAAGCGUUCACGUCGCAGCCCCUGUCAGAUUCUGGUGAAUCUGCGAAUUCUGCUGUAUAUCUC

# Variants of: B1
# assay.summary: self-cleavage, relative activity (ratio to wild type); higher = more cleavage; in vitro, sequencing
Give the figure only, with no unit attached.

# count of solved cases: 8
{"biopolymer.sequence": "UAACAGGGGGCCACAGCAGAAGCGUUCACGUCCCAGCCCCUGUCAGAUUCUGGUGAAUCUGCGAAUUCAGCUGUAUAUCUC", "self-cleavage": 0.07}
{"biopolymer.sequence": "UAACAGGGGGCCACAGCAGAAGCGAUCACGUCGCAGCCCCUGUCAGAUUCUGGUGAAUCUACGAAUUCUGCUGUAUAUCUC", "self-cleavage": 0.23}
{"biopolymer.sequence": "UAACUGGGGGCCACAGCAGAAGCCUUCACGUCGCAGCCCCUGUCAGAUUCUGGUGAAUCUGCGAAUUCUGCUGUAUAUCUC", "self-cleavage": 0.36}
{"biopolymer.sequence": "UAACAGGGGGCCACAGCAGACGCGUUCACGUCGCAGCCCCUGUCAGAUUCUGGUGAAUCGGCGAAUUCUGCUGUAUAUCUC", "self-cleavage": 0.15}
{"biopolymer.sequence": "UAACAGGGGGCCACAGCAGAAGCGUUCACUUCGCAGCCCCUGUCGGAUUCUGGUGAAUCUGCGAAUUCUGCUGUAUAUCUC", "self-cleavage": 0.28}
{"biopolymer.sequence": "UAACAGGGGGCCACAGCAGAAGCGUUCACGUCGCAGCCCCUGUGAGAUUCUGGUGAAUCUGCGAAUUAUGCUGUAUAUCUC", "self-cleavage": 0.3}
{"biopolymer.sequence": "UAACAGGGGGCCAUAGCAGAAGCGUUCACGUCGCAGCCACUGUCAGAUUCUGGUGAAUCUGCGAAUUCUGCUGUAUAUCUC", "self-cleavage": 0.55}
{"biopolymer.sequence": "UAACAGGGGGCCACCGCAGAAGCGUUCACGUCGCAGCCCCUGUCAGAUUCUGGUGAAGCUGCGAAUUCUGCUGUAUAUCUC", "self-cleavage": 0.29}

In: Given the entry `UAACAGGGGGCCACAGCAGAAGCGUUCACGUCGCAGCCCCUGUCAGAUUCUGGUGAAUCUGCGAAAUCUGCUGUAUUUCUC` , report its measured self-cleavage.
Out: 0.65

In: Given the entry `UAACAGGGGGCCACAGCAGAAGCGUUCACGCCGCAGACCCUGUCAGAUUCUGGUGAAUCUGCGAAUUCUGCUGUAUAUCUC` , report its measured self-cleavage.
Out: 0.28

In: Given the entry `UAACAGGGGGCCACAGCAGAAGCGUUCAGGUCGCAGCCCCUGUCAGAUUCUGGUGAAUCUGCGAAUUCUGCCGUAUAUCUC` , report its measured self-cleavage.
Out: 0.26

In: Given the entry `UAACAGUGGGCCACAGCAGAAGCGUCCACGUCGCAGCCCCUGUCAGAUUCUGGUGAAUCUGCGAAUUCUGCUGUAUAUCUC` , report its measured self-cleavage.
Out: 0.15

In: Given the entry `UAACAGGGGGCCACAGCAGAAGCGGUCACGUCGCAGCCCCUGUCAGAUUCUGGUGAAUCUGCGAAUUCUGCUGUAUUUCUC` , report its measured self-cleavage.
Out: 0.25

In: Given the entry `UAGCAGGGGGCCACAGCAGAAGCGUUCACGUCGCAGCCCCUGUCAGAUUCUGGUGAAACUGCGAAUUCUGCUGUAUAUCUC` , report its measured self-cleavage.
Out: 0.43
